Hello, the source for this data is patent US20240158370A1, in case you need it.

- study_system: CK1α (Homo sapiens, UniProt P48729+Q96SW2)
- Construct: CSNK1A1-HiBit KI HEK293(LgBit) Cells; host or cells: HEK293(LgBit) knock-in cells
- Sequence (P48729 whole entry): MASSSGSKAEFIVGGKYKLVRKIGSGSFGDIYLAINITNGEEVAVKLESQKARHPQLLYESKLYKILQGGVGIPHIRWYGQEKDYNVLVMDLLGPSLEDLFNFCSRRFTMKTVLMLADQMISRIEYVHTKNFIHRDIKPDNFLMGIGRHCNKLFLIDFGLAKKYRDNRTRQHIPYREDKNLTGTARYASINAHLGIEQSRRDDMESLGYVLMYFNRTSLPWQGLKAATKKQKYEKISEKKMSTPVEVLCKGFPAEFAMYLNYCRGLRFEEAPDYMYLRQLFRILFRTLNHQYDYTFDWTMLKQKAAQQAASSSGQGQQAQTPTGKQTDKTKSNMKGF
- Sequence (Q96SW2 whole entry): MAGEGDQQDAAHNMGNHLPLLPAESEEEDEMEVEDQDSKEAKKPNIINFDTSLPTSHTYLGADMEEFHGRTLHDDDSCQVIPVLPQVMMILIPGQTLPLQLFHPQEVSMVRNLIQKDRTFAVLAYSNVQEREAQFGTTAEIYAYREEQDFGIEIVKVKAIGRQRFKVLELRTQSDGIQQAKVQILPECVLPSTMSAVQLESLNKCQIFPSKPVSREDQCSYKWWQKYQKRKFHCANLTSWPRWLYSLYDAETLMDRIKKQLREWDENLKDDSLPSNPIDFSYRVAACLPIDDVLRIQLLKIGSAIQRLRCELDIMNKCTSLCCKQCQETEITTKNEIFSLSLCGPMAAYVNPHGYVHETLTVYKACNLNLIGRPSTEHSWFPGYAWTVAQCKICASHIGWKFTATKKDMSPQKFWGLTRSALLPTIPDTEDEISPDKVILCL
- Sequence (Q16531 whole entry partner): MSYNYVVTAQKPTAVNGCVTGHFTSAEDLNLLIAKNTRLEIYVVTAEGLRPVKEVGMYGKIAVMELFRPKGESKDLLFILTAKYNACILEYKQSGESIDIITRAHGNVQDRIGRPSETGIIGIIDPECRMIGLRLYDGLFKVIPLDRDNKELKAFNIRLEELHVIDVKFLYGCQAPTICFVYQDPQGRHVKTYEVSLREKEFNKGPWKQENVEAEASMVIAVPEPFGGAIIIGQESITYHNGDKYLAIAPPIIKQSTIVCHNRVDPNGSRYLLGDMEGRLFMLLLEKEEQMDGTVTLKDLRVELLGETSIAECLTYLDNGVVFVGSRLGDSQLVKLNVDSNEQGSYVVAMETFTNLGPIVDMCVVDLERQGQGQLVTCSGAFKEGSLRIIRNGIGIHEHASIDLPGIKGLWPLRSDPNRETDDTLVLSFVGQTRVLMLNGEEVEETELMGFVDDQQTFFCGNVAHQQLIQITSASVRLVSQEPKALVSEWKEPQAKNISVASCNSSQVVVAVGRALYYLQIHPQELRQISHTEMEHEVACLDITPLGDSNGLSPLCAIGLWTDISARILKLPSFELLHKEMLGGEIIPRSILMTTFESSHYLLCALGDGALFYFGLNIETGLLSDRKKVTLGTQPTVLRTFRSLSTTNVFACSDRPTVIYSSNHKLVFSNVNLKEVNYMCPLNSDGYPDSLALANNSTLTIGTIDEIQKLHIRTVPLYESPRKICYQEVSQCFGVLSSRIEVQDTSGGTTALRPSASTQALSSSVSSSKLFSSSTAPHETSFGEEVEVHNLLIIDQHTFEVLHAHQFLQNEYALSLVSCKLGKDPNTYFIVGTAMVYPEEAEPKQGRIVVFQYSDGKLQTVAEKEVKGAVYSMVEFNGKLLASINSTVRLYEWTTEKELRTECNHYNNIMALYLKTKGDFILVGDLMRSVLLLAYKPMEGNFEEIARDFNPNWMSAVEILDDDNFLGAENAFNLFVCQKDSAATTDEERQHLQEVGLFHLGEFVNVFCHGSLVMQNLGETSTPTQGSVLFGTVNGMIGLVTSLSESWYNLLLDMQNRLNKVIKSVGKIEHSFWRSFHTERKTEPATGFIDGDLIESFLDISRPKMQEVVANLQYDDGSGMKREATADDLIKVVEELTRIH
- test_protocol: HiBiT degradation assay, CK1α, Procedure A
- Format: cell-based
- run_conditions: six hours incubation
quantity_kind: DC50

Before answering, review these 3 worked examples.
INSERT INTO assay_data (compound, data_value) VALUES
  ('Cn1cnc(-c2ccc3c(c2)CN(C2CCC(=O)NC2=O)C3=O)c1-c1ccc(Cl)c(F)c1 (stereo not shown)', '< 25 nM'),
  ('COc1ccc(-c2c(-c3ccc4c(c3)CN(C3CCC(=O)NC3=O)C4=O)ncn2C)cc1F (stereo not shown)', '< 25 nM'),
  ('CN1CCN(Cc2ccc(-c3c(-c4ccc5c(c4)CN(C4CCC(=O)NC4=O)C5=O)cnn3C)cc2)CC1 (stereo not shown)', '≥ 25 nM');

Entry under review: O=C1CCC(N2Cc3cc(-c4sncc4-c4ccccc4)ccc3C2=O)C(=O)N1 (stereo not shown) . Reported DC50?
≥ 25 nM

Entry under review: COc1cc(-c2c(-c3ccc4c(c3)CN(C3CCC(=O)NC3=O)C4=O)cnn2C)ccc1C (stereo not shown) . Reported DC50?
< 25 nM

Entry under review: CC(C)c1cccc(-c2c(-c3ccc4c(c3)CN(C3CCC(=O)NC3=O)C4=O)ncn2C)c1 (stereo not shown) . Reported DC50?
< 25 nM

Entry under review: COc1ccc2cc(-c3c(-c4ccc5c(c4)CN(C4CCC(=O)NC4=O)C5=O)cnn3C)ccc2c1 (stereo not shown) . Reported DC50?
< 25 nM

Entry under review: Cn1cnc(-c2ccc3c(c2)CN(C2CCC(=O)NC2=O)C3=O)c1-c1ccc(C(=O)NCc2ccccc2)c(Cl)c1 (stereo not shown) . Reported DC50?
≥ 25 nM

Entry under review: COc1ccc(Cl)c(-c2c(-c3ccc4c(c3)CN(C3CCC(=O)NC3=O)C4=O)cnn2C)c1 (stereo not shown) . Reported DC50?
< 25 nM

Entry under review: Cn1ncc(-c2ccc3c(c2)CN(C2CCC(=O)NC2=O)C3=O)c1-c1ccc(C(=O)NCc2ccccc2)c(Cl)c1 (stereo not shown) . Reported DC50?
≥ 25 nM

Entry under review: Cc1ccc(-c2c(-c3ccc4c(c3)CN(C3CCC(=O)NC3=O)C4=O)ncn2C)s1 (stereo not shown) . Reported DC50?
< 25 nM

Entry under review: Cn1ncc(-c2ccc3c(c2)CN(C2CCC(=O)NC2=O)C3=O)c1-c1ccsc1 (stereo not shown) . Reported DC50?
< 25 nM

Entry under review: Cc1n[nH]c(-c2ccccc2)c1-c1ccc2c(c1)CN(C1CCC(=O)NC1=O)C2=O (stereo not shown) . Reported DC50?
≥ 25 nM

Entry under review: Cc1nc(-c2ccc3c(c2)CN(C2CCC(=O)NC2=O)C3=O)c(-c2ccccc2)n1C (stereo not shown) . Reported DC50?
< 25 nM

Entry under review: Cn1cnc(-c2ccc3c(c2)CN(C2CCC(=O)NC2=O)C3=O)c1-c1cccc(Cl)c1Cl (stereo not shown) . Reported DC50?
< 25 nM

Entry under review: Cn1ncc(-c2ccc3c(c2)CN(C2CCC(=O)NC2=O)C3=O)c1-c1ccc(Cl)s1 (stereo not shown) . Reported DC50?
< 25 nM
